# Tested on: THP-1 cells
# protocol.details: Resazurin (alamarBlue) cell viability assay in differentiated THP-1 cells
# Assay type: cell-based, human
# measurement.conditions: 100 ng/ml, footnote marks: * mild, ** marked reduction in viability, in % (unit assumed)
// reported Cell Viability for each item listed
Enter the number alone.

The examples below pair each entry with its known result.
> print(dat)
                                   compound  reported.result
1  C=CC1(C)CCC=C2C1CCC1C(C)(C(=O)OC)CCCC21C (stereo not shown)              100
2  C=C[C@@]1(C)CCC=C2[C@H]1CC[C@@H]1[C@](C)(C(=O)O)CCC[C@@]21C              100
3  C=CC1(C)CCC=C2C1CCC1C(C)(C(=O)N3CCOCC3)CCCC21C (stereo not shown)              100
4  C=CC1(C)CCC=C2C1CCC1C(C)(COC(C)=O)CCCC21C (stereo not shown)              100
5  C=CC1(C)CCC=C2C1CCC1C(C)(C=O)CCCC21C (stereo not shown)              100

## Input Can you look up the measured Cell Viability of C=CC1(C)CCC=C2C1CCC1C(C)(C(=O)NCCN)CCCC21C (stereo not shown) for me?
## Output 100

## Input Then this compound: C=CC1(C)CCC=C2C1CCC1C(C)(CC=O)CCCC21C (stereo not shown)
## Output 100

## Input Then this compound: C=CC1(C)CCC=C2C1CCC1C(C)(C(=O)N(CCO)CCO)CCCC21C (stereo not shown)
## Output 100

* * *

# System: TNF-α synthesis of THP-1 cells
# protocol.details: LPS-induced TNF-α production in PMA-differentiated THP-1 cells (FLISA)
# Type: cell-based, human
# measurement.conditions: THP-1, LPS; 10 ug/ml
property.name: Percent TNF-α Inhibition (%)
Please give a number only; it is taken to be in %.

The examples below pair each entry with its known result.
> print(dat)
                                   molecule                 subject.of.test  measurement.unit  reported.result
1  C=CC1(C)CCC=C2C1CCC1C(C)(COC(C)=O)CCCC21C (stereo not drawn)  TNF-α synthesis of THP-1 cells                 %               20
2  C=CC1(C)CCC=C2C1CCC1C(C)(C(=O)OC)CCCC21C (stereo not drawn)  TNF-α synthesis of THP-1 cells                 %               70
3  C=CC1(C)CCC=C2C1CCC1C(C)(C(=O)[O-])CCCC21C.[Na+] (stereo not drawn)  TNF-α synthesis of THP-1 cells                 %               50

## Input Can you look up the measured Percent TNF-α Inhibition of C=CC1(C)CCC=C2C1CCC1C(C)(CNCCN)CCCC21C (racemic) for me?
## Output 95

## Input Then this molecule: C=CC1(C)CCC=C2C1CCC1C(C)(C(=O)N3CCOCC3)CCCC21C (stereo not drawn)
## Output 55

* * *

# System: TNF-α synthesis of THP-1 cells
# protocol.details: LPS-induced TNF-α production in PMA-differentiated THP-1 cells (FLISA)
# Format: cell-based, human
# measurement.conditions: THP-1, LPS; 10 ug/ml
// reported Percent TNF-α Inhibition for each item listed

> print(dat)
                                   compound                 subject.of.test  reported.result
1  C=CC1(C)CCC=C2C1CCC1C(C)(C(=O)N(CCO)CCO)CCCC21C (stereo not shown)  TNF-α synthesis of THP-1 cells              20%
2  C=CC1(C)CCC=C2C1CCC1C(C)(C=O)CCCC21C (stereo not shown)  TNF-α synthesis of THP-1 cells              10%
3  C=CC1(C)CCC=C2C1CCC1C(C)(COC(=O)CCC(=O)O)CCCC21C (stereo not shown)  TNF-α synthesis of THP-1 cells              25%

Consider now this further compound.
## Input API: value(readout= Percent TNF-α Inhibition, system= TNF-α synthesis of THP-1 cells, query= C=CC1(C)CCC=C2C1CCC1C(C)(CCNCCN)CCCC21C (racemic) )
## Output 65%
